Source listed as patent US10988477B2.

target: GCN2 kinase (Homo sapiens, UniProt Q9P2K8); assay: GCN2 enzyme inhibition assay (Transcreener ADP2 fluorescence polarization); assay type: biochemical; settings: Enzyme activity for compounds of Formula IV; Ki(app), 280 μM ATP, 25° C.
Sequence (Q9P2K8 whole entry): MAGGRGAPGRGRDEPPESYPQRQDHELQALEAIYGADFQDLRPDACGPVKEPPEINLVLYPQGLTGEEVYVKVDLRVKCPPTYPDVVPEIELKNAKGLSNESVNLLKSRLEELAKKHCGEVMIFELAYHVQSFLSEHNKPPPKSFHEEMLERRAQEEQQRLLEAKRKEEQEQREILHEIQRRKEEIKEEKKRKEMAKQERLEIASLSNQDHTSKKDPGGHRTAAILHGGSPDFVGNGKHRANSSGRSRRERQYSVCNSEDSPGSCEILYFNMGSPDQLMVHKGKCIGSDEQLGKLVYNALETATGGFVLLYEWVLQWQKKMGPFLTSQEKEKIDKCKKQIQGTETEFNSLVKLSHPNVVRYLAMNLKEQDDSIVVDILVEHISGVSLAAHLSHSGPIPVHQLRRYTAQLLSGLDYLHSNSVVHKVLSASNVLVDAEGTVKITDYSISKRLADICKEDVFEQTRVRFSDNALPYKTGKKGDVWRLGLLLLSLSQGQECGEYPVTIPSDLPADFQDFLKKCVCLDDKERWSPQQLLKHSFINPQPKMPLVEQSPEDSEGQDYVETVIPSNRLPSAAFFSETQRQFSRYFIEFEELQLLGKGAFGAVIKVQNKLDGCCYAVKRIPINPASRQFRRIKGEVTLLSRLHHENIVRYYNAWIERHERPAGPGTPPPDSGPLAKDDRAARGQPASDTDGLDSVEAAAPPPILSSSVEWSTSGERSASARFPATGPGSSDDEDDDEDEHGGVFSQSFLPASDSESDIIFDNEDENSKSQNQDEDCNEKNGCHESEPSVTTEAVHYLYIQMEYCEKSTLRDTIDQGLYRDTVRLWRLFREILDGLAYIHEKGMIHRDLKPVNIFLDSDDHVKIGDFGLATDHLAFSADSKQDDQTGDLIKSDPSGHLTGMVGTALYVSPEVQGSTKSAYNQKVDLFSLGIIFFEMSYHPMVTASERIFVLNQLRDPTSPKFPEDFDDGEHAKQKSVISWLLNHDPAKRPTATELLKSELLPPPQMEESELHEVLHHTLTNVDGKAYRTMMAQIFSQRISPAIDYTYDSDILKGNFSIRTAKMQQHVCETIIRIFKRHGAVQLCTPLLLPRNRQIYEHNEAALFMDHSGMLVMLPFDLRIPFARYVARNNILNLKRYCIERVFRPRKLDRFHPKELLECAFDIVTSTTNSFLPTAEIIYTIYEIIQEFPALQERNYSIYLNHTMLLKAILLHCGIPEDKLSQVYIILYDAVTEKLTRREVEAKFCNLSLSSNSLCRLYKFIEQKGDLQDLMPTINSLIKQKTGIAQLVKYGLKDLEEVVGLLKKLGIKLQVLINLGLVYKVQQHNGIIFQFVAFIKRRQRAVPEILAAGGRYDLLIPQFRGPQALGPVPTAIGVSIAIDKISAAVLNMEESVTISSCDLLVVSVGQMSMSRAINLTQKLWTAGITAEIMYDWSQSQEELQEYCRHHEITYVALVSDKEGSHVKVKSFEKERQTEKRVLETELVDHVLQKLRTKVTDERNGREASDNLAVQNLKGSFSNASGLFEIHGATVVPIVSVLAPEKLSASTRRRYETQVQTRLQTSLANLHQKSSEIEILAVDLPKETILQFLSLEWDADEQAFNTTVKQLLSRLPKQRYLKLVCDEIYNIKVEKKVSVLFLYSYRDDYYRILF
pKi: −log10 of the molar value.
# maps each entry to its pKi

Here are 5 molecules together with their reported answers.
What measured pKi goes with Clc1cn2c(-c3nccc(N4CCNC(c5cn[nH]c5)C4)n3)cnc2cn1 (single isomer, unassigned) [IV-238] ? 7.00 to 8.00

What measured pKi goes with CC1CCC(C(N)=O)CN1c1ccnc(-c2cnc3cnc(C(F)(F)F)cn23)n1 (centres unmarked) [IV-631] ? 7.00 to 8.00

What measured pKi goes with CN(C)S(=O)(=O)C1CCCN(c2ccnc(-c3cnc4cnc(C(F)F)cn34)n2)C1 (centres unmarked) [IV-170] ? 6.00 to 7.00

What measured pKi goes with CC1C(c2cn[nH]c2)OCCN1c1ccnc(-c2cnc3cnc(C(F)(F)F)cn23)n1 (single isomer, unassigned) [IV-318] ? > 8.00

What measured pKi goes with Cc1n[nH]cc1C1CCCN(c2ccnc(-c3cnc4cnc(C(F)F)cn34)n2)C1 (single isomer, unassigned) [IV-469] ? 7.00 to 8.00

***
What measured pKi goes with OCC1CCCN(c2ccnc(-c3cnc4cnc(C(F)(F)F)cn34)n2)C1 (centres unmarked) [IV-439] ? 6.00 to 7.00

What measured pKi goes with COCC1CN(c2ccnc(-c3cnc4cnc(C(F)(F)F)cn34)n2)CC(C)O1 (centres unmarked) [IV-586] ? 6.00 to 7.00

What measured pKi goes with CC1CCC(C)N(c2ccnc(-c3cnc4cnc(C(N)=O)cn34)n2)C1 (centres unmarked) [IV-271] ? 6.00 to 7.00

* * *

target: GCN2 kinase (Homo sapiens, UniProt Q9P2K8); assay: GCN2 enzyme inhibition assay (Transcreener ADP2 fluorescence polarization); assay type: biochemical; conditions: Enzyme activity for compounds of Formula IV; Ki(app), 280 μM ATP, 25° C.
pKi: −log10 of the molar value.
assay-endpoint: pKi

Here are 3 molecules together with their reported answers.
What measured pKi goes with CC1CN(c2ccnc(-c3cnc4cnc(C#N)cn34)n2)CC(c2cn[nH]c2)O1 (single isomer, unassigned) [IV-191] ? 7.00 to 8.00

What measured pKi goes with CS(=O)(=O)NC1CCN(c2ccnc(-c3cnc4cnc(C(F)F)cn34)n2)C1 (centres unmarked) ? 6.00 to 7.00

What measured pKi goes with FC(F)(F)c1cn2c(-c3nccc(N4CCO[C@@H](c5ccccn5)C4)n3)cnc2cn1 ? 6.00 to 7.00

***
What measured pKi goes with [O-][S+]1CCN(c2ccnc(-c3cnc4cnc(C(F)F)cn34)n2)CC1 ? 6.00 to 7.00

What measured pKi goes with CC1CN(c2ccnc(-c3cnc4cnc(Cl)cn34)n2)CC(c2cn[nH]c2)O1 (centres unmarked) [IV-193] ? > 8.00

What measured pKi goes with CC1CN(c2cc(N3CCC3)nc(-c3cnc4cnc(C(F)(F)F)cn34)n2)C(C)C(c2cn[nH]c2)N1 (centres unmarked) ? > 8.00

What measured pKi goes with FC(F)(F)c1cn2c(-c3nccc(N4CCCC(c5cn[nH]c5Cl)C4)n3)cnc2cn1 (centres unmarked) ? > 8.00

What measured pKi goes with FC(F)(F)c1cn2c(-c3nccc(N4CCCC(n5ccc(C(F)(F)F)n5)C4)n3)cnc2cn1 (centres unmarked) ? 6.00 to 7.00

* * *

# maps each entry to its IC50
target: intracellular GCN2 (phosphorylation of the GCN2 substrate eIF2α) (Homo sapiens, UniProt Q9P2K8); assay: GCN2 cellular inhibition assay (AlphaScreen SureFire P-eIF2α Ser51, borrelidin-treated U2OS cells); assay type: cell-based; settings: compounds of Formula II; biomarker assay, phosphorylated eIF2α Ser51 in borrelidin-treated U2OS cells
Sequence (Q9P2K8 whole entry): as above

Here are 5 compounds together with their reported answers.
What measured IC50 goes with Cc1nn(C)cc1[C@@H]1CN(c2cc(-c3cnc4ccc(C(F)(F)F)nn34)ncn2)C[C@H](C)O1 [II-759] ? > 5 µM

What measured IC50 goes with NC(=O)NCC1CCCN(c2cc(-c3cnc4ccc(C(F)F)nn34)ncn2)C1 (centres unmarked) [II-215] ? 0.5 to 5 µM

What measured IC50 goes with CS(=O)(=O)NCC1COCCN(c2cc(-c3cnc4ccc(C(F)F)nn34)ncn2)C1 (centres unmarked) [II-481] ? 0.5 to 5 µM

What measured IC50 goes with COCC(=O)NCCC1CCCN(c2cc(-c3cnc4ccc(C(F)F)nn34)ncn2)C1 (centres unmarked) [II-209] ? > 5 µM

What measured IC50 goes with CC1CC(CNS(C)(=O)=O)C(C)N(c2cc(-c3cnc4ccc(C(F)F)nn34)ncn2)C1 (single isomer, unassigned) [II-546] ? < 0.5 µM

***
What measured IC50 goes with CC1C(CNS(C)(=O)=O)OCCN1c1cc(-c2cnc3ccc(C(F)F)nn23)ncn1 (single isomer, unassigned) [II-372] ? > 5 µM

What measured IC50 goes with CC1C(NS(C)(=O)=O)CCCN1c1cc(-c2cnc3ccc(C(F)F)nn23)ncn1 (centres unmarked) [II-602] ? < 0.5 µM

What measured IC50 goes with O=S1(=O)CCN(c2cc(-c3cnc4ccc(C(F)F)nn34)ncn2)CC1 [II-295] ? > 5 µM

* * *

target: intracellular GCN2 (phosphorylation of the GCN2 substrate eIF2α) (Homo sapiens, UniProt Q9P2K8); test: GCN2 cellular inhibition assay (AlphaScreen SureFire P-eIF2α Ser51, borrelidin-treated U2OS cells); type: cell-based; details: compounds of Formula IV; biomarker assay, phosphorylated eIF2α Ser51 in borrelidin-treated U2OS cells
# maps each entry to its IC50

What measured IC50 goes with N#CCC1CCCN(c2ccnc(-c3cnc4cnc(C(F)F)cn34)n2)C1 (centres unmarked) ? > 5 µM

What measured IC50 goes with OCCc1cc(C2CCCN(c3ccnc(-c4cnc5cnc(C(F)F)cn45)n3)C2)n[nH]1 (centres unmarked) ? > 5 µM

***
What measured IC50 goes with CC1C(c2cn[nH]c2)NCCN1c1ccnc(-c2cnc3cnc(C(F)(F)F)cn23)n1 (single isomer, unassigned) [IV-357] ? > 5 µM

What measured IC50 goes with FC(F)(F)c1cn2c(-c3nccc(N4CCCC(c5nccs5)C4)n3)cnc2cn1 (centres unmarked) ? > 5 µM

What measured IC50 goes with N#Cc1n[nH]cc1C1=CCCN(c2ccnc(-c3cnc4cnc(C(F)(F)F)cn34)n2)C1 ? 0.5 to 5 µM

What measured IC50 goes with CC1C(c2cn[nH]c2)NCCN1c1ccnc(-c2cnc3cnc(C(F)(F)F)cn23)n1 (single isomer, unassigned) [IV-358] ? 0.5 to 5 µM

What measured IC50 goes with FC(F)(F)c1cn2c(-c3nccc(N4CCCC(c5cc[nH]n5)C4)n3)cnc2cn1 (centres unmarked) ? 0.5 to 5 µM

What measured IC50 goes with NC(=O)C1CN(c2ccnc(-c3cnc4cnc(C(F)(F)F)cn34)n2)CC(F)(F)C1 (centres unmarked) ? 0.5 to 5 µM

* * *

target: intracellular GCN2 (phosphorylation of the GCN2 substrate eIF2α) (Homo sapiens); assay: GCN2 cellular inhibition assay (AlphaScreen SureFire P-eIF2α Ser51, borrelidin-treated U2OS cells); assay type: cell-based; details: compounds of Formula II; biomarker assay, phosphorylated eIF2α Ser51 in borrelidin-treated U2OS cells
assay-endpoint: IC50

Here are 5 compounds together with their reported answers.
What measured IC50 goes with C[C@@H]1CO[C@H](CNS(C)(=O)=O)CN1c1cc(-c2cnc3ccc(C(F)F)nn23)ncn1 [II-197] ? < 500 nM

What measured IC50 goes with NC(=O)[C@H]1CCCN(c2cc(-c3cnc4ccc(Cl)nn34)ccn2)C1 [II-189] ? 500 to 5000 nM

What measured IC50 goes with FC(F)c1ccc2ncc(-c3cc(N4CCCCC4)ncn3)n2n1 [II-308] ? > 5000 nM

What measured IC50 goes with CS(=O)(=O)CCC1CCCN(c2cc(-c3cnc4ccc(C(F)F)nn34)ncn2)C1 (centres unmarked) [II-493] ? 500 to 5000 nM

What measured IC50 goes with CS(C)(=O)=NC1CC(C(F)(F)F)CN(c2cc(-c3cnc4ccc(C(F)F)nn34)ncn2)C1 (centres unmarked) [II-695] ? 500 to 5000 nM

***
What measured IC50 goes with CS(=O)(=O)NCC1(O)CCCN(c2cc(-c3cnc4ccc(C(F)F)nn34)ncn2)C1 (centres unmarked) [II-158] ? 500 to 5000 nM

What measured IC50 goes with NS(=O)(=O)N1CCC2CCN(c3cc(-c4cnc5ccc(C(F)F)nn45)ncn3)C2C1 (centres unmarked) [II-344] ? < 500 nM

What measured IC50 goes with CS(=O)(=O)NCC1CN(c2cc(-c3cnc4ccc(C(F)F)nn34)ncn2)CC2(CC2)C1(F)F (centres unmarked) [II-528] ? < 500 nM
